Values were extracted from patent US20160068605A1.

Biological target: T1, Recombinant human CD123 SP1 ECD-His tag protein (human, UniProt P26951 20-305)
T1 construct: bought from R&D Systems (#301-R3/CF); biotinylated for some assays; also called rhCD123 SP1; huCD123 ECD SP1
T1 sequence: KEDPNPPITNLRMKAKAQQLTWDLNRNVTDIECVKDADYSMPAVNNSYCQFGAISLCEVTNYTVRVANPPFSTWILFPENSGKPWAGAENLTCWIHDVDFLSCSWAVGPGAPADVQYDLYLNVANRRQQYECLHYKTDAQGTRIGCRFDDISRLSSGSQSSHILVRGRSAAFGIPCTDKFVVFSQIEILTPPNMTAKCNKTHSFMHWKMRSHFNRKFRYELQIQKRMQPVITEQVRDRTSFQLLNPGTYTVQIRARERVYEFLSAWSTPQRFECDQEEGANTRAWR
Assay: SPR ProteOn, captured mAb
Readout: log10 Kd (log10 of the value in nM)
# values: log10(Kd), units nM

The examples below pair each entry with its known result.
{"Binder": "I3RB35 (antibody, IgG1, V domains shown, IgG1) VH: QVQLVQSGAEVKKPGSSVKVSCKASGGTFSSYAISWVRQAPGQGLEWMGGIIPIFGTANYAQKFQGRVTITADESTSTAYMELSSLRSEDTAVYYCARHLFWDAGPLDYWGQGTLVTVSS VL: DIQMTQSPSSLSASVGDRVTITCRASQSISSYLNWYQQKPGKAPKLLIYAASSLQSGVPSRFSGSGSGTDFTLTISSLQPEDFATYYCQQYFSPPYTFGQGTKVEIK", "log10 Kd": 0.45}
{"Binder": "I3RB40 (antibody, IgG1, V domains shown, IgG1) VH: QVQLVQSGAEVKKPGSSVKVSCKASGGTFSSYAISWVRQAPGQGLEWMGGIIPIFGTANYAQKFQGRVTITADESTSTAYMELSSLRSEDTAVYYCARGQWWADTWFDYWGQGTLVTVSS VL: EIVLTQSPATLSLSPGERATLSCRASQSVAKWLAWYQQKPGQAPRLLIYGASNRATGIPARFSGSGSGTDFTLTISSLEPEDFAVYYCQQYHTAPWTFGQGTKVEIK", "log10 Kd": 0.78}
{"Binder": "I3RB29 (antibody, IgG1, V domains shown, IgG1) VH: QVQLVQSGAEVKKPGSSVKVSCKASGGTFSSYAISWVRQAPGQGLEWMGGIIPIFGTANYAQKFQGRVTITADESTSTAYMELSSLRSEDTAVYYCARDSRIWSFSLDYWGQGTLVTVSS VL: DIQMTQSPSSLSASVGDRVTITCRASQSIGEWLNWYQQKPGKAPKLLIYAASSLQSGVPSRFSGSGSGTDFTLTISSLQPEDFATYYCQQYYHFPLTFGQGTKVEIK", "log10 Kd": 0.77}
{"Binder": "I3RB21 (antibody, IgG1, V domains shown, IgG1) VH: QVQLVQSGAEVKKPGSSVKVSCKASGGTFSSYAISWVRQAPGQGLEWMGGIIPIFGTANYAQKFQGRVTITADESTSTAYMELSSLRSEDTAVYYCAREGWWGQGKFDYWGQGTLVTVSS VL: EIVLTQSPATLSLSPGERATLSCRASQSVANFLAWYQQKPGQAPRLLIYAASNRATGIPARFSGSGSGTDFTLTISSLEPEDFAVYYCQQYFHWPYTFGQGTKVEIK", "log10 Kd": 0.34}

Continue with the next binder.
Value of measured log10 Kd for the entry I3RB34 (antibody, IgG1, V domains shown, IgG1; also called 13RB34) VH: QVQLVQSGAEVKKPGSSVKVSCKASGGTFSSYAISWVRQAPGQGLEWMGGIIPIFGTANYAQKFQGRVTITADESTSTAYMELSSLRSEDTAVYYCARGWSYYRLDYWGQGTLVTVSS VL: EIVLTQSPATLSLSPGERATLSCRASQSVDKWLAWYQQKPGQAPRLLIYYASNRATGIPARFSGSGSGTDFTLTISSLEPEDFAVYYCQQFDRAPFTFGQGTKVEIK : 1.75
